Origin of the recorded values: PubChem BioAssay (NCI)

The reader will find reported TGI values listed item by item below.
- Tested on: HCT-116 colon
- Protocol Description: NCI tumour cell line growth inhibition, 48 h

Below: 3 molecules and their reported TGI.
Molecule: CCOc1cc2c(cc1O)/C(=N\OC)C[C@@H]1[C@@H]2CC[C@]2(C)[C@@H](O)CC[C@@H]12
TGI: > 38.7 µM
--
Molecule: COc1cc(/C=C/C(=N\NS(=O)(=O)c2ccc(C)cc2)c2sc(NNC(C)=O)nc2C)ccc1O
TGI: > 100 µM
--
Molecule: NNC(=O)Nc1cccnc1
TGI: > 100 µM

Now examine the next entry.
Q: Item O=C(Nc1ccccc1OC(F)(F)F)Nc1n[nH]c2ccccc12 : provide TGI
Result: > 100 µM

###

Entries annotated with measured TGI
- Tested on: BT-549 breast
- Protocol Description: NCI tumour cell line growth inhibition, 48 h

Known TGI results, listed for orientation:
Molecule: CCOc1cc2c(cc1O)/C(=N\OC)C[C@@H]1[C@@H]2CC[C@]2(C)[C@@H](O)CC[C@@H]12
Readout Name: TGI
Recorded Result: 40.9 µM
--
Molecule: CCOC(=O)[C@]1(OC(C)=O)C[C@H](OC(C)=O)[C@@H](C(F)COP(=O)(OCc2ccccc2)OCc2ccccc2)O1 (stereo not given in full)
Readout Name: TGI
Recorded Result: > 100 µM
--
Molecule: O=C(O)CSc1ccc([N+](=O)[O-])cc1[N+](=O)[O-]
Readout Name: TGI
Recorded Result: > 100 µM
--
Molecule: CC[C@@]1(C[C@H]2C[C@@]3(C(=O)OC)c4[nH]c5ccccc5c4CCN3C2=O)COC2(CCCCC2)O1
Readout Name: TGI
Recorded Result: > 100 µM

Read the next record carefully.
Q: State TGI (BT-549 breast) of O=C(CC1(O)C(=O)Nc2c(Cl)cc(Cl)cc21)c1ccc(Br)cc1Br (stereo not given) .
Result: 22.3 µM

###

- Tested on: TK-10 renal
- Protocol Description: NCI tumour cell line growth inhibition, 48 h
Readout Name: TGI

Q: Name the recorded TGI of the molecule listed here: O=C1CC(c2ccc3c(c2)OCO3)Nc2ccccc21 (stereo not drawn)
Result: 99.4 µM

Q: Using the record for Oc1cccc2c(Cl)ccnc12 , state its measured TGI.
Result: > 100 µM

Q: Give the reported value of TGI for this record: NC(Cc1c[nH]c2c(O)cccc12)C(=O)O (stereo not drawn)
Result: > 100 µM

Q: Identify TGI associated with the molecule Clc1ccc(/C=C/c2nc3ccccc3s2)cc1Cl
Result: > 100 µM

Q: Name the recorded TGI of the item CCCCCN(CCCCC)CCCNc1c2c(nc3ccc(Cl)cc13)CCCC2 in your answer.
Result: 7.24 µM

###

- Tested on: SNB-78 CNS
- Protocol Description: NCI tumour cell line growth inhibition, 48 h
Readout Name: TGI

Record excerpt, results attached:
Molecule: CN(C)CC[N+]1=Nc2cccc3cccc(c23)N1
Recorded Result: > 100 µM
--
Molecule: O=C1/C(=C/c2ccccc2)CN(C(=O)C(Cl)(Cl)Cl)C/C1=C\c1ccccc1
Recorded Result: 7.54 µM

Q: Fill in reported TGI for this entry: COC(=O)CC1CCN(C#N)CC1CC[N+](=O)[O-] (stereo not given)
Result: > 100 µM

Q: // Input: COc1nc(N)c(C(=O)CCl)c(=O)n1C . Output its TGI only.
Result: 40.2 µM

Q: Consider the molecule COC1CCC2C(NS(=O)(=O)c3ccc(C)cc3)CCCC2O1 (stereo not given) (tested in a mixture with another compound) . State its measured TGI.
Result: > 34.5 µM
